- Test system: Sci-1
- protocol: MTT cell viability assay
- Assay type: cell-based
- condition parameters: Sci-1, GCB DLBCL, RPMI 10% FBS
- Method: A total of 60 cell lines representative of different cancer types were obtained from the ATCC and grown and maintained in accordance with the provided guidelines. […] The 3-(4,5-dimethylthiazol-2-yl)-2,5-diphenyltetrazolium bromide (MTT) cell viability assay was used to determine cell viability in response to drug treatment. […] Absorbance was measured at 570 nm using a plate reader from Tecan Group. The IC50 concentration was determined using the publicly available ED50 plus v1.0 software program.
measure: IC50

> print(dat)
                                   compound  reported.value
1  Nc1cc(C(F)(F)F)c(-c2cc(N3CCOCC3)nc(N3CCOCC3)n2)cn1 [BKM120]          985 nM
2  Cn1c(=O)n(-c2ccc(C(C)(C)C#N)cc2)c2c3cc(-c4cnc5ccccc5c4)ccc3ncc21 [BEZ235]           35 nM
3  COc1ccc(-c2ccc3ncc4c(c3c2)n(-c2ccc(N3CCNCC3)c(C(F)(F)F)c2)c(=O)n4C)cn1 [BGT226]         24.5 nM

---

Recorded measurements of IC50, one per entry
- System: IM9
- protocol: MTT cell viability assay
- Format: cell-based
- condition parameters: Homo sapiens, IM-9; IM9, Multiple Myeloma, RPMI 10% FBS
measure: IC50 (nM)

> print(dat)
                                smiles.data  target.or.system  measure  measurement.units  reported.value
1  Cn1c(=O)n(-c2ccc(C(C)(C)C#N)cc2)c2c3cc(-c4cnc5ccccc5c4)ccc3ncc21               IM9     IC50                 nM            4500
2  Nc1cc(C(F)(F)F)c(-c2cc(N3CCOCC3)nc(N3CCOCC3)n2)cn1               IM9     IC50                 nM             575
3  COc1ccc(-c2ccc3ncc4c(c3c2)n(-c2ccc(N3CCNCC3)c(C(F)(F)F)c2)c(=O)n4C)cn1               IM9     IC50                 nM             201

---

- System: LY10
- protocol: MTT cell viability assay
- Format: cell-based
- condition parameters: LY10, ABC DLBCL, OCI
measure: IC50 (µM)

> print(dat)
                                smiles.data  measurement.units  reported.value
1  Cn1c(=O)n(-c2ccc(C(C)(C)C#N)cc2)c2c3cc(-c4cnc5ccccc5c4)ccc3ncc21                 µM            9.39
2  Nc1cc(C(F)(F)F)c(-c2cc(N3CCOCC3)nc(N3CCOCC3)n2)cn1                 µM            1.52

---

Recorded measurements of IC50, one per entry
- Test system: LY2
- protocol: MTT cell viability assay
- Type: cell-based
- condition parameters: LY2, GCB DLBCL, OCI
measure: IC50 (nM)

> print(dat)
                                smiles.data  measurement.units  reported.value
1  Nc1cc(C(F)(F)F)c(-c2cc(N3CCOCC3)nc(N3CCOCC3)n2)cn1                 nM            2220
2  Cn1c(=O)n(-c2ccc(C(C)(C)C#N)cc2)c2c3cc(-c4cnc5ccccc5c4)ccc3ncc21                 nM            29.7
